Would you kindly list inhibition for each of these molecules?
Target: Thromboxane A2 receptor (Homo sapiens)
Sequence (whole entry): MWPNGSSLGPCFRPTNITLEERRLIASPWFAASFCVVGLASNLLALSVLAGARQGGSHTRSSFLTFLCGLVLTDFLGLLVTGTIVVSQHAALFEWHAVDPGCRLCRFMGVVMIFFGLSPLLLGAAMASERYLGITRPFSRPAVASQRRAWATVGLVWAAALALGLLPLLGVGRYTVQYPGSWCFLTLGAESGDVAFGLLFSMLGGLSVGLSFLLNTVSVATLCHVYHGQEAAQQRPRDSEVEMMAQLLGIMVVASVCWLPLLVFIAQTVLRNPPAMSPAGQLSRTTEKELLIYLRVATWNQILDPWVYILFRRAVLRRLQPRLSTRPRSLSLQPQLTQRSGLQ
Assay: Binding affinity for thromboxane A2 receptor by measuring its ability to displace [3H]U-46619 from guinea pig platelets at 0.1 uM
Details: Cavia porcellus, target entry is the homologue from another species

Some molecules with known inhibition results, for comparison:
>  <Molecule>
O=C(O)c1ccc2c(c1)C(SCCNS(=O)(=O)c1ccccc1[N+](=O)[O-])c1ccccc1CO2 (configuration not stated)

>  <inhibition>
72%

$$$$
>  <Molecule>
O=C(O)c1ccc2c(c1)C(SCCNC(=O)c1ccccc1)c1ccccc1CO2 (configuration not stated)

>  <inhibition>
69%

$$$$
>  <Molecule>
O=C(O)c1ccc2c(c1)C(SCCNS(=O)(=O)c1ccc(C(F)(F)F)cc1)c1ccccc1CO2 (configuration not stated)

>  <inhibition>
70%

$$$$

Provide the reported inhibition of each entry below, same order.
1. O=C(O)c1ccc2c(c1)C(SCCNS(=O)(=O)c1ccccc1)c1ccccc1OC2 (configuration not stated)
2. COc1ccc(S(=O)(=O)NCCSC2c3ccccc3COc3ccc(C(=O)O)cc32)cc1 (configuration not stated)
3. O=C(O)c1ccc2c(c1)C(SCCNC(=O)C1CCCCC1)c1ccccc1CO2 (configuration not stated)
4. COc1ccc(C(=O)NCCSC2c3ccccc3COc3ccc(C(=O)O)cc32)c(OC)c1OC (configuration not stated)

1. 21%
2. 83%
3. 20%
4. 82%

// data source = ChEMBL document CHEMBL1126121
